assay: plasmodial surface anion channel blockers, osmotic lysis – cell-based, P. falciparum Indochina, OD700, 2 h, primary screen (AID 1155);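 further: lysis reports solute entry through the parasite surface anion channel PSAC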; conditions: P. falciparum Indochina infected erythrocytes, called active from +8 up or from −8 down
The source made the active and inactive calls.
Could you please pick one outcome from this set? 1 (yes) = active, 0 (no) = inactive

Qu. Kindly provide the recorded test outcome for the following compound: COC(=O)[C@@]1(Cc2ccccc2)[C@H]2c3cc(C(=O)N(C)C)n(Cc4ccccc4)c3C[C@H]2CN1C(=O)c1ccccc1
Ans. 0 (no)

Qu. State the result this test recorded for O=C(NCC(F)(F)F)[C@@H]1c2ccccc2C(=O)N(Cc2ccccc2)[C@H]1c1ccc(CO)cc1 .
Ans. 0 (no)

Qu. Check the results log: what was the call for O=c1cccc(-c2ccccc2)o1 ?
Ans. 0 (no)

Qu. Can you look up the reported call for COC(=O)c1c(CC[C@@H](CO)NC(=O)Nc2ncn[nH]2)oc(C(=O)Cc2ccccc2)c1C(=O)OC for me?
Ans. 0 (no)

Qu. GET /call?item= CCOC(=O)N1C(c2ccc(OCCCO)cc2)=NC(C(=O)OC)N1C(=O)OCC (configuration not stated) returns the recorded outcome of this test.
Ans. 0 (no)

Qu. Lab log entry: COC(=O)[C@@]1(Cc2ccc(OC)cc2)[C@H]2c3cc(C(=O)N4CCCC4)n(C[C@H](O)CO)c3C[C@H]2CN1C(=O)c1ccccc1 — outcome as called in the assay?
Ans. 0 (no)

Qu. Write down the call the test reported for this compound. Item: CN(C)CCCN1C(=O)[C@@]2(c3ccc([N+](=O)[O-])cc3)CC(=O)N(C3CCCCC3)[C@@H]2c2ccc(CO)cc21
Ans. 0 (no)

Qu. Each compound tested received a call. Report the one for CC1(C)C(=O)C(c2ccccc2)=C2CN3C(=O)N(CCc4ccccc4)C(=O)C3(Cc3ccccc3)C=C21 (configuration not stated) .
Ans. 0 (no)

Qu. Entry C=CCNC(=O)[C@@H]1[C@H]2C(=O)O[C@H](c3ccccc3)[C@H](c3ccccc3)N2[C@H](c2ccccc2OCCO)[C@@]12C(=O)N(C(=O)OCCOC)c1ccc(C#CCC(C(=O)OC)C(=O)OC)cc12 : call = ?
Ans. 0 (no)

Qu. I would be grateful if you could indicate the recorded call for COc1ccc([Si](C)(C)[C@H]2[C@H](CC(=O)N3CCC[C@H]3CO)O[C@@]3(C(=O)N(c4ccccc4)c4ccccc43)[C@@H]2C)cc1 .
Ans. 0 (no)

Qu. For COc1ccc([Si](C)(C)[C@@H]2[C@@H](CCO)O[C@]3(C(=O)N(Cc4ccc(N5C(=O)c6cccc7cccc5c67)cc4)c4ccccc43)[C@H]2C)cc1 , what call appears in the results of this test?
Ans. 0 (no)

Qu. Lab log entry: COCCOC(=O)N1C(=O)[C@@]2(c3cc(C#CC4(O)CCCCCC4)ccc31)[C@H](c1ccc(O)cc1)N1[C@H](c3ccccc3)[C@H](c3ccccc3)OC(=O)[C@H]1[C@@H]2C(=O)N1CCc2cc(OC)c(OC)cc2C1 — outcome as called in the assay?
Ans. 0 (no)

Qu. Dear all, I need the recorded test outcome for COc1cc2c(cc1O)C(c1ccc(CN3CCCC3)cc1)N(Cc1sc3ccccc3c1Cl)CC2 (configuration not stated) , thank you.
Ans. 0 (no)

Qu. Just curious, what result did C=CC[C@@]1(C(=O)NCc2ccccc2)N=C(c2ccc(OCCCO)cc2)O[C@@H]1c1ccccc1CN=[N+]=[N-] get here?
Ans. 1 (yes)

Qu. How did this test come out for C=CCNC(=O)[C@H]1[C@@H]2C(=O)O[C@@H](c3ccccc3)[C@@H](c3ccccc3)N2[C@@H](c2ccc(OCCO)cc2)[C@]12C(=O)N(C(=O)OCCOC)c1ccc(C#CC3(O)CCCCCC3)cc12 ?
Ans. 0 (no)

Qu. Hello, I am checking results. What call was entered for O=C1O[C@H](c2ccccc2)[C@H](c2ccccc2)N2[C@H]1[C@@H](C(=O)NC[C@H](O)c1ccccc1)[C@]1(C(=O)Nc3ccc(C#CC4(O)CCCCCC4)cc31)[C@H]2c1ccccc1OCCO ?
Ans. 0 (no)

Qu. Outcome logged for COC(=O)c1c2oc(c1C(=O)OC)C(=O)N[C@H](Cc1ccccc1)Cn1nncc1C1(CCCCC1)NC(=O)N[C@H](CO)CC2 in this assay:
Ans. 0 (no)

Qu. Could you please tell me the result logged for C#C[C@H](O[Si](C#CCCCCCC)(C(C)C)C(C)C)c1ccccc1 in this assay?
Ans. 0 (no)

Qu. Dear colleague, could you share the recorded outcome for O=C1O[C@@H](c2ccccc2)[C@@H](c2ccccc2)N2[C@@H](c3ccccc3OCCO)[C@]3(C(=O)Nc4ccc(C#CC5(O)CCCCCC5)cc43)[C@@H](C(=O)NC[C@H](O)c3ccccc3)[C@H]12 when you have a moment?
Ans. 0 (no)

Qu. Identify the outcome logged in this assay for the compound shown: CCCC[C@H]1OB(O)C[C@H]2C1=C(COc1ccccc1)C[C@H]1C(=O)N(Cc3ccccc3)C(=O)[C@H]12
Ans. 0 (no)

Qu. // param item: NC(=O)NCC#Cc1ccc2c(c1)[C@]1(C(=O)N2)[C@H](C(=O)NC[C@H](O)c2ccccc2)[C@H]2C(=O)O[C@H](c3ccccc3)[C@H](c3ccccc3)N2[C@@H]1c1ccccc1OCCO ; yields the recorded call
Ans. 0 (no)

Qu. Call for entry O=C1O[C@@H](c2ccccc2)[C@@H](c2ccccc2)N2[C@@H](c3ccc(O)cc3)[C@]3(C(=O)Nc4ccc(C#CCCO)cc43)[C@@H](C(=O)N3CCCCCCC3)[C@H]12 :
Ans. 0 (no)

Qu. Query: recorded result category for CCCCN1CC=CC23O[C@@H]4C=CCCOC(=O)C4[C@H]2C(=O)N(CCCO)[C@@H]3C1=O (some centres not stated) in this test
Ans. 0 (no)

Qu. GET /call?item= Cc1ccc(S[C@]2(C(=O)NCCCN(C)C)CC(=O)N(Cc3ccccc3)[C@@H]2c2ccc(CO)cc2)cc1 returns the recorded outcome of this test.
Ans. 0 (no)

Qu. How was COC(=O)[C@@]1(Cc2ccc(OC)cc2)[C@H]2c3cc(C(=O)N(C)C)n(Cc4ccc(OC)c(OC)c4)c3C[C@H]2CN1C(=O)c1ccccc1 classified in this test?
Ans. 0 (no)

Qu. # fetch the recorded call for CN1C(=O)C2C(C1=O)C1C=C(c3ccc(CO)cc3)C2C(C2CC2)N1Cc1cc2c(cc1Br)OCO2 (configuration not stated) here
Ans. 0 (no)

Qu. Check the results log: what was the call for Cc1ccc(S[C@]2(C(=O)NCCN3CCOCC3)CC(=O)N(C3CCCCC3)[C@@H]2c2ccc(CO)cc2)cc1 ?
Ans. 0 (no)

----------
biological target: Torsin-1A (Homo sapiens) (UniProt O14656); test: TOR1A wild-type binding on microarray – cell lysate, small-molecule microarray, lysate, 635/667 nm, primary screen (AID 1149); details: COS7 hTOR1A-WT lysate, 635 nm fluorescence, higher = more signal
Sequence (O14656 whole entry, looked up): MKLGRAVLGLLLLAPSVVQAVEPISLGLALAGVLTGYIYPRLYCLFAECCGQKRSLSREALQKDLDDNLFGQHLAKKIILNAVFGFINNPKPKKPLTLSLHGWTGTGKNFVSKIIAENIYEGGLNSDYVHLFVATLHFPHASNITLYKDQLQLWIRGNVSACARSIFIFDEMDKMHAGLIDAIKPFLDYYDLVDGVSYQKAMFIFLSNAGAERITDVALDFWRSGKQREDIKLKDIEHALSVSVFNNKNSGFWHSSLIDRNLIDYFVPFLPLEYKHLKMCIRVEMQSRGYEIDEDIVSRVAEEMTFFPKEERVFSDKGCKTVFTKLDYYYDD
Field: composite z-score. Provide a value for each of the compounds that follow.
// print number alone

Qu. Look up composite z-score for this compound: COCCOC(=O)N1C(=O)[C@@]2(c3cc(C#CC4(O)CCCCCC4)ccc31)[C@H](c1ccc(O)cc1)N1[C@H](c3ccccc3)[C@H](c3ccccc3)OC(=O)[C@H]1[C@@H]2C(=O)N1CCc2cc(OC)c(OC)cc2C1
Ans. -0.576

Qu. Which composite z-score is reported for this compound? CCN(CC)c1ccc(N2CC=CC34O[C@@H]5/C=C\CCCOC(=O)C5[C@H]3C(=O)N(CCCO)[C@@H]4C2=O)cc1 (some centres undefined)
Ans. -1.94

Qu. # query: composite z-score of entry CC(c1ccccc1)C(O)C1C=CC2C(=O)N(Cc3ccccc3)C(=O)C2N1n1cnnc1 (centres undefined)
Ans. 0.327

Qu. Need composite z-score of C=C[C@H](C)[C@H](O)c1ccc(OCCO)cc1 , thanks.
Ans. -2.73

----------
assay: calcein-AM signal in unstimulated myeloma cells – cell-based, calcein-AM fluorescence, 48 h, PK04 Diversity Set, profiling panel (AID 1166); details: RPMI8226 myeloma viability, higher = more signal;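 further: cells grown under basal conditions without added stimulus; test concentration not given here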
For each record, check the reported z-score: if it is below -1 write T, else write F.

Qu. Is it true that z-score reported for COC(=O)[C@@]1(Cc2ccc(OC)cc2)[C@H]2c3cc(C(=O)N(C)C)n(CCSCCO)c3C[C@H]2CN1C(=O)c1ccccc1 is less than -1?
Ans. F

Qu. Is -1 strictly greater than the molecule's reported z-score? molecule: COc1cc(NN2C(C(O)c3ccccc3)C=CC3C(=O)N(c4ccccc4)C(=O)C32)cc(OC)c1OC (stereo unspecified)
Ans. F

Qu. Find out if reported z-score for O=c1cccc(-c2cccc3ccccc23)o1 is less than -1
Ans. T

Qu. Record CC1CC/C=C\[C@H]2OC34C=CCN(CCN5CCOCC5)C(=O)[C@H]3N(CCCCCO)C(=O)[C@@H]4C2C(=O)O1 (stereo partly specified) : is its z-score strictly below -1?
Ans. F

Qu. Determine if O=C(N1CCCCC1)[C@]1(CCS(=O)(=O)c2ccccc2)N=C(c2ccc(OCCCO)cc2)O[C@@H]1c1ccccc1 shows z-score strictly lower than -1.
Ans. T

Qu. # strict comparison: is reported z-score < -1? input = C#C[C@H](O[Si](C#CCCCCCC)(C(C)C)C(C)C)c1ccccc1
Ans. F

Qu. Is -1 strictly greater than the molecule's reported z-score? molecule: O=C1C2C=CC(C(O)CCc3ccccc3)N(Nc3ccccc3)C2C(=O)N1c1ccccc1 (stereo unspecified)
Ans. F

Qu. Is z-score strictly under -1 for the entry CC1CC/C=C\[C@H]2OC34C=CCN(Cn5nnc6ccccc65)C(=O)[C@H]3N(CCCO)C(=O)[C@@H]4C2C(=O)O1 (stereo partly specified) ?
Ans. F

Qu. Consider C=C(C(=O)CC[C@@H](OC(C)=O)c1ccc(OCCO)cc1)C(C)C . Does its z-score lie strictly below -1?
Ans. F

Qu. Identify whether the molecule CN(C)CCCC[C@@H]1NC(=O)[C@@H]2C[C@H](C(=O)NCc3ccc(F)cc3)[C@H](c3cccc(OCCO)c3)N2C1=O records z-score below -1.
Ans. F

Qu. Does this molecule meet the criterion z-score < -1? C[C@]1(C(=O)NCC(F)(F)F)c2ccccc2C(=O)N(Cc2cc(F)cc(C(F)(F)F)c2)[C@H]1c1ccc(CO)cc1
Ans. F

Qu. Please let me know if O=C(NCCN1CCOCC1)[C@@H]1c2ccccc2C(=O)N(Cc2cc(F)cc(C(F)(F)F)c2)[C@H]1c1ccc(CO)cc1 shows z-score below -1.
Ans. F

Qu. hey, is z-score for CC(C)N1C(=O)c2ccccc2[C@](C)(C(=O)NCCCN(C)C)[C@@H]1c1ccc(CO)cc1 lower than -1 or not?
Ans. F

Qu. I wonder whether COCCOC(=O)N1C(=O)[C@@]2(c3cc(C#Cc4ccc(OC)cc4)ccc31)[C@H](c1ccc(OCCO)cc1)N1[C@H](c3ccccc3)[C@H](c3ccccc3)OC(=O)[C@H]1[C@@H]2C(=O)N1CCc2cc(OC)c(OC)cc2C1 has z-score below -1. Can you tell?
Ans. F

Qu. Decide: z-score of C=C(/C(=C/C[C@@H](OC(C)=O)c1ccc(CO)o1)c1cnc2ccccc2c1)C(C)C strictly below -1?
Ans. F

Qu. # strict comparison: is reported z-score < -1? input = C=CCOC(=O)[C@@H]1[C@H]2C(=O)O[C@H](c3ccccc3)[C@H](c3ccccc3)N2[C@H](c2ccc(OCCOC(=O)[C@H]3C[C@H]4C(=O)N[C@@H](CC(C)C)C(=O)N4[C@H]3c3cccc(OCCO)c3)cc2)[C@@]12C(=O)Nc1ccc(I)cc12
Ans. T

Qu. Is the reported z-score for Cc1ccc(S[C@]2(C(=O)NCCN3CCOCC3)CC(=O)N(C3CCCCC3)[C@@H]2c2ccc(CO)cc2)cc1 strictly below -1?
Ans. F

Qu. Regarding CO[C@H]1O[C@H](CO)[C@@H](OC(=O)Nc2ccc(C(F)(F)F)cc2)[C@H](OC(=O)Nc2ccccc2)[C@@H]1OC(=O)Nc1ccccc1 , kindly confirm whether its z-score is beneath -1.
Ans. T

Qu. Hello, I'm reviewing records and need to know if z-score of O=C1OCCC/C=C\[C@H]2OC34C=CCN(CCN5CCOCC5)C(=O)[C@H]3N(CCO)C(=O)[C@@H]4C12 (stereo partly specified) is below -1. Could you check?
Ans. F

Qu. Is it true that z-score reported for C=C(C(=O)CC[C@@H](OC(=O)c1cccnc1)c1ccc(OCCO)cc1)C(C)C is less than -1?
Ans. T

Qu. Input C=C(C(=O)CC[C@@H](OC(=O)c1cccnc1)c1ccc(CO)o1)C(C)C ; condition: z-score strictly below -1. Does it hold?
Ans. F

Qu. Please indicate whether the reported z-score of [N-]=[N+]=NCc1ccccc1[C@H]1OC(c2ccc(OCCCO)cc2)=N[C@@]1(Cc1ccccc1)C(=O)NCC(O)CO (stereo partly specified) is strictly below -1.
Ans. T

Qu. Strictly below -1 in z-score? O=S(=O)(NCCCO)c1ccc(Br)cc1
Ans. F

Qu. Is z-score strictly under -1 for the entry NC(=O)[C@@]1(CCS(=O)(=O)c2ccccc2)N=C(c2ccc(OCCCO)cc2)O[C@H]1c1ccccc1 ?
Ans. T

Qu. Determine if CC(C)NC(=O)[C@@H]1c2ccccc2C(=O)N(C2CCCCC2)[C@H]1c1ccc(CO)cc1 shows z-score strictly lower than -1.
Ans. T

Qu. z-score strictly < -1 for this molecule? CCCC[C@@H]1C[C@H]1[C@@H](NC(=O)c1ccccc1)c1ccc(-c2ccccc2)cc1
Ans. T

Qu. Field: below-cutoff. Rule: recorded z-score strictly less than -1. Subject: C[C@H]1C2[C@H](Cc3ccccc3)NC(=O)[C@]23C(=O)N[C@H](Cc2ccccc2)C(=O)N[C@H](Cc2ccccc2)C(=O)NC/C=C/CCC/C=C/C3[C@@H]2O[C@]12C (stereo partly specified)
Ans. T

Qu. I wonder whether COc1ccccc1CN1C(=O)c2ccccc2[C@](Cc2ccccc2I)(C(=O)NCc2ccccc2)[C@@H]1c1ccc(CO)cc1 has z-score below -1. Can you tell?
Ans. T

Qu. For CN1C(=O)C2C(C1=O)C1C=C(c3ccc(CO)cc3)C2C(C2CC2)N1Cc1sc2ccccc2c1Cl (stereo unspecified) , is the recorded z-score below the cut-off of -1?
Ans. T

Qu. Report whether reported z-score is lower than -1 (strictly) for CCN(CC)c1ccc(N2CC=CC34O[C@@H]5C=CCOC(=O)[C@@H]5[C@H]3C(=O)N(CCCCCO)[C@@H]4C2=O)cc1 (stereo partly specified)
Ans. F

Qu. Does this molecule meet the criterion z-score < -1? CCCNC(=O)[C@@]1(C)c2ccccc2C(=O)N(C(C)C)[C@H]1c1ccc(CO)cc1
Ans. F
